The measured values listed here are drawn from the supplement of paper PMC3545927.

tgt: furin, P09958
Sequence (P09958 whole entry): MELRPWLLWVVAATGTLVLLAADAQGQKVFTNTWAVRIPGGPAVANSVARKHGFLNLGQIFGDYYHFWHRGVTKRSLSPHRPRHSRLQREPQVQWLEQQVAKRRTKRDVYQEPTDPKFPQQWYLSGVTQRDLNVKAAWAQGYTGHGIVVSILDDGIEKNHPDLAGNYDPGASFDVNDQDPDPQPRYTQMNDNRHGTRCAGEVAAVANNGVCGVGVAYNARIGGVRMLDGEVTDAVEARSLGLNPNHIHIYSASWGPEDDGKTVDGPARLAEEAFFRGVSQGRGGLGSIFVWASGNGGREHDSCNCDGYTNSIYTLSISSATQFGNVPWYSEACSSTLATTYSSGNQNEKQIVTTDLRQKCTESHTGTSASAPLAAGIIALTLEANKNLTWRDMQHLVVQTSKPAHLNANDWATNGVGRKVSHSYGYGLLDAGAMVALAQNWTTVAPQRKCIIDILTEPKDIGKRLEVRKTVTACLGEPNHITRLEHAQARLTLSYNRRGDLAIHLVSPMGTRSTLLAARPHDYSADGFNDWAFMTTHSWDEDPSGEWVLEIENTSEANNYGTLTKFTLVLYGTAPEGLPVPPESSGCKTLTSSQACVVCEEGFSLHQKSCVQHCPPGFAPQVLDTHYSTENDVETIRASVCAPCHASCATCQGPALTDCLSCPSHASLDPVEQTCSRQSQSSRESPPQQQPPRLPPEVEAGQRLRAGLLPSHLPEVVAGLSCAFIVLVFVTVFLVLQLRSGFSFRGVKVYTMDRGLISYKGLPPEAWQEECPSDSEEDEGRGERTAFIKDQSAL
experimental details: furin cleavage Z-score vs untreated control; higher = more cleavage, active = 3.5 or more, inactive = 1 or less, 8 variable residues between constant flanks;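 also: purified furin at 1:10 enzyme:substrate in 50 mM HEPES pH 7.5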
cond: 7.5 min
Some of the results follow. The hit rate among all sequences tested is not known here.
I would appreciate it if you answered using one of these outcomes: active, inactive

**Query** Call for entry CAQLGRPKRCAGNASASA [FS-1248] :
**Result** active

**Query** Call for entry CAPLLLLLLAAGNASASA [HC558] :
**Result** inactive

**Query** Call for entry CAQGTRFKRAAGNASASA [FS-847] :
**Result** active

**Query** Call for entry CAAVMGSSYGAGNASASA [HC1463] :
**Result** inactive
